# Test system: SU-DHL-1 cells
# method-description: CellTiter-Glo 2.0 cell viability assay, SU-DHL-1
# Format: cell-based
# condition-details: Homo sapiens, 96 h, 4 days
readout: IC50

Example entries and their recorded answers appear below.
structure-notation: Cc1ncsc1-c1ccc([C@H](C)NC(=O)[C@@H]2C[C@@H](O)CN2C(=O)[C@@H](n2cc(CCCCCCC(=O)N3CC[C@H]4CC[C@@H](C(=O)N[C@@H](CCC(N)=O)C(=O)NC(c5ccccc5)c5ccccc5)N4C(=O)[C@@H](NC(=O)c4cc5cc(C(=O)P(=O)(O)O)ccc5[nH]4)C3)nn2)C(C)(C)C)cc1
readout: IC50
recorded-result: > 1 µM
--
structure-notation: Cc1ncsc1-c1ccc([C@H](C)NC(=O)[C@@H]2C[C@@H](O)CN2C(=O)[C@@H](n2cc(CCCCC(=O)N3CC[C@H]4CC[C@@H](C(=O)N[C@@H](CCC(N)=O)COc5cccc(Cl)c5)N4C(=O)[C@@H](NC(=O)c4cc5cc(C(=O)P(=O)(O)O)ccc5[nH]4)C3)nn2)C(C)(C)C)cc1
readout: IC50
recorded-result: 0.1 to 1 µM
--
structure-notation: Cc1ncsc1-c1ccc([C@H](C)NC(=O)[C@@H]2C[C@@H](O)CN2C(=O)[C@@H](NC(=O)CCC(=O)N2CC[C@H]3CC[C@@H](C(=O)N[C@@H](CCC(N)=O)C(=O)NC(c4ccccc4)c4ccccc4)N3C(=O)[C@@H](NC(=O)c3cc4cc(C(=O)P(=O)(O)O)ccc4[nH]3)C2)C(C)(C)C)cc1
readout: IC50
recorded-result: 0.1 to 1 µM
--
structure-notation: Cc1ncsc1-c1ccc([C@H](C)NC(=O)[C@@H]2C[C@@H](O)CN2C(=O)[C@@H](NC(=O)CCCCCCCCC(=O)N2CC[C@H]3CC[C@@H](C(=O)N[C@@H](CCC(N)=O)C(=O)NC(c4ccccc4)c4ccccc4)N3C(=O)[C@@H](NC(=O)c3cc4cc(C(=O)P(=O)(O)O)ccc4[nH]3)C2)C(C)(C)C)cc1
readout: IC50
recorded-result: 0.1 to 1 µM

[ask] # get_value(readout='IC50', item= `CC(=O)N1CC[C@H]2CC[C@@H](C(=O)N[C@@H](CCC(N)=O)COc3cccc(CCCCNC(=O)C[C@H](NC(=O)[C@@H]4C[C@@H](O)CN4C(=O)[C@@H](n4cc(C5CC5)nn4)C(C)(C)C)c4ccc(-c5scnc5C)cc4)c3Cl)N2C(=O)[C@@H](NC(=O)c2cc3cc(C(=O)P(=O)(O)O)ccc3[nH]2)C1` )
[reply] 0.01 to 0.1 µM

[ask] Also `COCCOCCOCCOCCC(=O)N1CC[C@H]2CC[C@@H](C(=O)N[C@@H](CCC(N)=O)COc3cccc(CCCc4cn([C@H](C(=O)N5C[C@H](O)C[C@H]5C(=O)N[C@@H](C)c5ccc(-c6scnc6C)cc5)C(C)(C)C)nn4)c3Cl)N2C(=O)[C@@H](NC(=O)c2cc3cc(C(=O)P(=O)(O)O)ccc3[nH]2)C1` ?
[reply] < 0.01 µM

---

# measured-target: STAT3 (Homo sapiens)
# Construct: This cell line is a clone created by using CRISPR-Cas9 to fuse HiBiT to the 3′ end of STAT3 in HeLa cells; host or cells: STAT3-HiBiT KI HeLa cell line (CRISPR-Cas9 knock-in clone)
# Sequence (P40763 whole entry): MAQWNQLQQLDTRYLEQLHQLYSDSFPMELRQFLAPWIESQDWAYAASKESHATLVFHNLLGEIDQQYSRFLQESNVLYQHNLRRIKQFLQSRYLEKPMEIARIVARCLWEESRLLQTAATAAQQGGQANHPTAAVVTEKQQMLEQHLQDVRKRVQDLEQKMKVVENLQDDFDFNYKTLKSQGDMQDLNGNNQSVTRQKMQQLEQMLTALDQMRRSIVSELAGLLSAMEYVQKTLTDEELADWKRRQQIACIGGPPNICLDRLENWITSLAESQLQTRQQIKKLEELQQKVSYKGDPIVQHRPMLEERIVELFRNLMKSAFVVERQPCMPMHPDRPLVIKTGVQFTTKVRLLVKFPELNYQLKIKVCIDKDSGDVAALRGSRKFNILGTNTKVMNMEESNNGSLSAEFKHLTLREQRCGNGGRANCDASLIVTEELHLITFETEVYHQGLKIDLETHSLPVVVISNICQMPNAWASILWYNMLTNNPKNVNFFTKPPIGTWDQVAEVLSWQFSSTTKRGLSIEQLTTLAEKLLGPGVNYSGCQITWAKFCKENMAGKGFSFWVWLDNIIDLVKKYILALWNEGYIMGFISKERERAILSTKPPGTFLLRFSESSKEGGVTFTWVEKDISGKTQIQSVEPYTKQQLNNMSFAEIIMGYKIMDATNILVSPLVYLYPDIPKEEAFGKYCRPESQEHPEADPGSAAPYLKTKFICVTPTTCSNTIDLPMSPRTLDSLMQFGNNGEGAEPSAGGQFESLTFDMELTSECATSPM
# method-description: HiBiT assay, STAT3 degradation in STAT3-HiBiT KI HeLa cells
# Type: cell-based
# condition-details: 24 h, read-out: STAT3 Degradation (HeLa 24 h HiBit) DC50
# DC50 values compiled below

Example entries and their recorded answers appear below.
structure-notation: Cc1ncsc1-c1ccc([C@H](C)NC(=O)[C@@H]2C[C@@H](O)CN2C(=O)[C@@H](NC(=O)CCCCC(=O)N2CC[C@H]3CC[C@@H](C(=O)N[C@@H](CCC(N)=O)C(=O)NC(c4ccccc4)c4ccccc4)N3C(=O)[C@@H](NC(=O)c3cc4cc(C(=O)P(=O)(O)O)ccc4[nH]3)C2)C(C)(C)C)cc1
DC50: 10 to 100 nM
//
structure-notation: Cc1ncsc1-c1ccc([C@H](C)NC(=O)[C@@H]2C[C@@H](O)CN2C(=O)[C@@H](n2cc(CCCCCCCC(=O)N3CC[C@H]4CC[C@@H](C(=O)N[C@@H](CCC(N)=O)C(=O)NC(c5ccccc5)c5ccccc5)N4C(=O)[C@@H](NC(=O)c4cc5cc(C(=O)P(=O)(O)O)ccc5[nH]4)C3)nn2)C(C)(C)C)cc1
DC50: > 1000 nM
//
structure-notation: CCS(=O)(=O)c1ccc(CNC(=O)[C@H](CCC(N)=O)NC(=O)[C@@H]2CC[C@@H]3CCN(C(=O)CCCCCCc4cn([C@H](C(=O)N5C[C@H](O)C[C@H]5C(=O)N[C@@H](C)c5ccc(-c6scnc6C)cc5)C(C)(C)C)nn4)C[C@H](NC(=O)c4cc5cc(C(=O)P(=O)(O)O)ccc5[nH]4)C(=O)N32)cc1
DC50: < 10 nM
//
structure-notation: CCS(=O)(=O)c1ccc(CNC(=O)[C@H](CCC(N)=O)NC(=O)[C@@H]2CC[C@@H]3CCN(C(=O)CCCCCc4cn([C@@H](C(=O)N5C[C@@H](O)C[C@@H]5C(=O)N[C@@H](C)c5ccc(-c6scnc6C)cc5)C5CCCCC5)nn4)C[C@H](NC(=O)c4cc5cc(C(=O)P(=O)(O)O)ccc5[nH]4)C(=O)N32)cc1
DC50: < 10 nM

[ask] # get_value(readout='DC50', item= `CC(=O)N1CC[C@H]2CC[C@@H](C(=O)N[C@@H](CCC(N)=O)COc3cccc(CCCCN4CCC([C@@H](C(=O)N5C[C@H](O)C[C@H]5C(=O)N[C@@H](C)c5ccc(-c6scnc6C)cc5)n5cc(C6CC6)nn5)CC4)c3Cl)N2C(=O)[C@@H](NC(=O)c2cc3cc(C(=O)P(=O)(O)O)ccc3[nH]2)C1` )
[reply] 100 to 1000 nM

[ask] Also `Cc1ncsc1-c1ccc([C@H](C)NC(=O)[C@@H]2C[C@@H](O)CN2C(=O)[C@@H](n2cc(CCC(=O)N3CC[C@H]4CC[C@@H](C(=O)N[C@@H](CCC(N)=O)C(=O)NCc5cccc(Cl)c5)N4C(=O)[C@@H](NC(=O)c4cc5cc(C(=O)P(=O)(O)O)ccc5[nH]4)C3)nn2)C(C)(C)C)cc1` ?
[reply] 100 to 1000 nM

---

# Test system: SUP-M2 cells
# method-description: CellTiter-Glo 2.0 cell viability assay, SUP-M2
# Type: cell-based
# condition-details: SUP-M2, 96 h, 4 days
pIC50: −log10 of the molar value.
readout: pIC50

structure-notation: CC(=O)N1CC[C@H]2CC[C@@H](C(=O)N[C@@H](CCC(N)=O)COc3cccc(CCCc4cn([C@H](C(=O)N5C[C@H](O)C[C@H]5C(=O)N[C@@H](C)c5ccc(-c6scnc6C)cc5)C(C)(C)C)nn4)c3Cl)N2C(=O)[C@@H](NC(=O)c2cc3cc(C(=O)P(=O)(O)O)ccc3[nH]2)C1
pIC50: > 8.00

In the following, a different compound is considered.
[ask] # get_value(readout='pIC50', item= `Cc1ncsc1-c1ccc([C@H](C)NC(=O)[C@@H]2C[C@@H](O)CN2C(=O)[C@@H](n2cc(CCCCC(=O)N3CC[C@H]4CC[C@@H](C(=O)N[C@@H](CCC(N)=O)C(=O)NCc5cccc(Cl)c5)N4C(=O)[C@@H](NC(=O)c4cc5cc(C(=O)P(=O)(O)O)ccc5[nH]4)C3)nn2)C(C)(C)C)cc1` )
[reply] 7.00 to 8.00

---

# pIC50 values compiled below
# Test system: SUP-M2 cells
# method-description: CellTiter-Glo 2.0 cell viability assay, SUP-M2
# Format: cell-based
# condition-details: SUP-M2, 96 h, 4 days
# Method: For example, cell viability may be determined by CellTiter-Glo 2.0 Cell Viability Assay. […] At the end of treatment, CellTiter-Glo 2.0 is added to the wells and luminescence is acquired on TECAN SPARK plate reader. […] IC50 values are calculated using a nonlinear regression analysis of the mean±SD from triplicate. SU-DHL-1 and SUP-M2 cell viability was determined by CellTiter-Glo 2.0 Cell Viability Assay (Promega). […]
pIC50: −log10 of the molar value.

Example entries and their recorded answers appear below.
structure-notation: Cc1ncsc1-c1ccc([C@H](C)NC(=O)[C@@H]2C[C@@H](O)CN2C(=O)[C@@H](n2cc(CCCc3cccc(OC[C@H](CCC(N)=O)NC(=O)[C@@H]4CC[C@@H]5CCN(C(=O)C(C)C)C[C@H](NC(=O)c6cc7cc(C(=O)P(=O)(O)O)ccc7[nH]6)C(=O)N54)c3Cl)nn2)C(C)(C)C)cc1
readout: pIC50
recorded-result: > 8.00
//
structure-notation: Cc1ncsc1-c1ccc([C@H](C)NC(=O)[C@@H]2C[C@@H](O)CN2C(=O)[C@@H](n2cc(CCCCC(=O)N3CC[C@H]4CC[C@@H](C(=O)N[C@@H](CCC(N)=O)COc5cccc(Cl)c5)N4C(=O)[C@@H](NC(=O)c4cc5cc(C(=O)P(=O)(O)O)ccc5[nH]4)C3)nn2)C(C)(C)C)cc1
readout: pIC50
recorded-result: 7.00 to 8.00

In the following, a different molecule is considered.
[ask] # get_value(readout='pIC50', item= `Cc1ncsc1-c1ccc([C@H](C)NC(=O)[C@@H]2C[C@@H](O)CN2C(=O)[C@@H](NC(=O)CCCCC(=O)N2CC[C@H]3CC[C@@H](C(=O)N[C@@H](CCC(N)=O)C(=O)NC(c4ccccc4)c4ccccc4)N3C(=O)[C@@H](NC(=O)c3cc4cc(C(=O)P(=O)(O)O)ccc4[nH]3)C2)C(C)(C)C)cc1` )
[reply] 7.00 to 8.00

Entry source: patent US20260226086A1
